Listing: thermal shift delta Tm of selected compounds
Tested on: LOC_OS05G16824-cb004
Assay summary: thermal shift delta Tm vs DMSO control; higher = stronger stabilization (binding);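 also: purified Escherichia coli-expressed rice kinase domain construct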
Particulars: 12.5 µM; protein concentration 2 µM
Quantity name: thermal shift delta Tm

                                   compound  recorded_value
0  O=C1NC(=O)C(=Cc2ccc(-c3ccc(F)cc3)o2)S1 (stereo in doubt)        -3.64 °C
1     Cn1cc(/C=C2\C(=O)Nc3cccnc32)c2ccccc21         10.2 °C
2  CC(C)c1ccc2oc3nc(N)c(C(=O)O)cc3c(=O)c2c1         2.16 °C
3           CCN1/C(=C/C(C)=O)Sc2ccc(OC)cc21         0.06 °C
4  OC(c1cc(-c2ccc(Cl)cc2)nc2ccccc12)C1CCCCN1 (centres undefined)         1.23 °C
5  COC(=O)N[C@@H](C)CNc1nccc(-c2cn(C(C)C)nc2-c2cc(Cl)cc(NS(C)(=O)=O)c2F)n1        -3.57 °C
6  COc1cc2c(Oc3ccc(NC(=O)C4(C(=O)Nc5ccc(F)cc5)CC4)cc3F)ccnc2cc1OCCCN1CCOCC1         5.71 °C
7  C=CC(=O)Nc1cccc(C)c1Nc1ncc2cc(-c3c(Cl)c(OC)cc(OC)c3Cl)ccc2n1        -0.76 °C
8  COc1cc(CCc2cc(NC(=O)c3ccc(N4CC(C)NC(C)C4)cc3)n[nH]2)cc(OC)c1 (centres undefined)         4.73 °C

====

System: LOC_OS05G07850-cb002
Assay summary: thermal shift delta Tm vs DMSO control; higher = stronger stabilization (binding)
Particulars: 12.5 µM; protein concentration 2 µM
Structures can show the parent of a compound that is named as a salt.
Quantity name: thermal shift delta Tm (°C)

                                    compound         tested_system           quantity_name  recorded_value
 0  CC1=C(C(=O)Nc2cc3cn[nH]c3cc2F)C(c2ccc(C(F)(F)F)cc2)CC(=O)N1 (centres undefined)  LOC_OS05G07850-cb002  thermal shift delta Tm            0.48
 1  CCS(=O)(=O)N1CCN(c2ccc(Nc3ncc(C(N)=O)c(NC4CC4)n3)cc2)CC1  LOC_OS05G07850-cb002  thermal shift delta Tm             9.2
 2  CC(C)(CCCCCC(O)CCCCCC(C)(C)C(=O)O)C(=O)O  LOC_OS05G07850-cb002  thermal shift delta Tm            0.87
 3  Cc1ncc(-c2ccnc(Nc3ccc(S(C)(=O)=O)cc3)n2)n1C(C)C  LOC_OS05G07850-cb002  thermal shift delta Tm            11.2
 4  Oc1cccc(-c2nc(N3CCOCC3)c3oc4ncccc4c3n2)c1  LOC_OS05G07850-cb002  thermal shift delta Tm            0.47
 5  COc1cc2c3cc1Oc1c(OC)c(OC)cc4c1[C@@H](Cc1ccc(O)c(c1)Oc1ccc(cc1)C[C@@H]3N(C)CC2)N(C)CC4 [Berbamine (dihydrochloride)]  LOC_OS05G07850-cb002  thermal shift delta Tm           -0.48
 6  Cc1cc(Nc2ncnc3ccc(NC4=NC(C)(C)CO4)cc23)ccc1Oc1ccn2ncnc2c1 [Irbinitinib (ARRY-380, ONT-380)]  LOC_OS05G07850-cb002  thermal shift delta Tm             0.8
 7  CCOC(=O)c1cnc2ccc(-c3cncc(NS(=O)(=O)c4ccccc4)c3)cn12  LOC_OS05G07850-cb002  thermal shift delta Tm            3.75
 8  CC(C)c1ccc2oc3nc(N)c(C(=O)O)cc3c(=O)c2c1 [Amlexanox]  LOC_OS05G07850-cb002  thermal shift delta Tm            2.22
 9  CCOc1cc2ncc(C#N)c(Nc3ccc(F)c(Cl)c3)c2cc1NC(=O)/C=C/CN(C)C [Pelitinib (EKB-569)]  LOC_OS05G07850-cb002  thermal shift delta Tm             2.2
10  C[S+]([O-])c1ccc(-c2nc(-c3ccc(F)cc3)c(-c3ccncc3)[nH]2)cc1 (centres undefined)  LOC_OS05G07850-cb002  thermal shift delta Tm            1.83
11  CN(C)C/C=C/C(=O)Nc1cc2c(Nc3ccc(F)c(Cl)c3)ncnc2cc1O[C@H]1CCOC1 [Afatinib (BIBW2992)]  LOC_OS05G07850-cb002  thermal shift delta Tm            7.09
12  COc1ccc(/C=C/C(=O)C2(C(=O)/C=C/c3ccc(OC)c(OC)c3)CCCCC2)cc1OC  LOC_OS05G07850-cb002  thermal shift delta Tm            0.62
13  C=CC(=O)Nc1cccc(Nc2nc(Nc3ccc(OCCOC)cc3)ncc2F)c1  LOC_OS05G07850-cb002  thermal shift delta Tm            12.6
14  COc1ccc(Oc2cc(NCCC(F)(F)F)c3ncc(-c4ccc(C(=O)NC5CC5)c(C)c4)n3n2)c(F)c1F  LOC_OS05G07850-cb002  thermal shift delta Tm            2.11
15  Cc1ccc(NC(=O)c2ccc(CN3CCN(C)CC3)cc2)cc1Nc1nccc(-c2cccnc2)n1 [Imatinib Mesylate (STI571)]  LOC_OS05G07850-cb002  thermal shift delta Tm            2.65
16  CCN1CCN(Cc2ccc(Nc3ncc(F)c(-c4cc(F)c5nc(C)n(C(C)C)c5c4)n3)nc2)CC1  LOC_OS05G07850-cb002  thermal shift delta Tm            12.6
17  CCN1CCN(Cc2ccc(C(=O)Nc3ccc(C)c(Oc4ccc5c(c4)CC(=O)N5)c3)cc2C(F)(F)F)CC1  LOC_OS05G07850-cb002  thermal shift delta Tm           -0.13
18  CC(C)=CC[C@@H](O)C1=CC(=O)c2c(O)ccc(O)c2C1=O [Shikonin]  LOC_OS05G07850-cb002  thermal shift delta Tm           -1.47
19  Cn1cnc2c(F)c(Nc3ccc(Br)cc3Cl)c(C(=O)NOCCO)cc21 [Selumetinib (AZD6244)]  LOC_OS05G07850-cb002  thermal shift delta Tm           -0.01
20  CNS(=O)(=O)Nc1nccc(Cc2c(C)c3ccc(Oc4ncccn4)cc3oc2=O)c1F  LOC_OS05G07850-cb002  thermal shift delta Tm            0.16
21  COCCOc1ccc2c(c1)ncn2-c1ccc2cccc(N3CCC(N)CC3)c2n1  LOC_OS05G07850-cb002  thermal shift delta Tm            16.7
22  CC(C)(C)c1cc(NC(=O)Nc2ccc(-c3cn4c(n3)sc3cc(OCCN5CCOCC5)ccc34)cc2)no1 [Quizartinib (AC220)]  LOC_OS05G07850-cb002  thermal shift delta Tm            1.54
23  Cn1cc(-c2ccc(F)c(C(F)(F)F)c2)nc1C1CCN(c2ncnc3[nH]ncc23)CC1  LOC_OS05G07850-cb002  thermal shift delta Tm            0.42
24  CC1(C)OC(=O)C=C[C@]2(C)[C@H]3CC[C@@]4(C)[C@H](c5ccoc5)OC(=O)[C@H]5O[C@]54[C@]3(C)C(=O)C[C@@H]12 [Obacunone]  LOC_OS05G07850-cb002  thermal shift delta Tm           -0.17
25  COc1cc2c(Oc3ccc4[nH]c(C)cc4c3F)ncnc2cc1OCCCN1CCCC1 [Cediranib (AZD2171)]  LOC_OS05G07850-cb002  thermal shift delta Tm            1.23
26  CC1=C(C(=O)Nc2ccc3[nH]ncc3c2)C(c2ccc(F)cc2)NC(=O)N1 (centres undefined)  LOC_OS05G07850-cb002  thermal shift delta Tm            1.88
27  C=CC(=O)Nc1cccc(Nc2nc(Nc3ccc(NC4CN(CCF)C4)cc3OC)ncc2C(F)(F)F)c1  LOC_OS05G07850-cb002  thermal shift delta Tm            6.71
28  Cc1ccc(NC(=O)c2cccc(C(C)(C)C#N)c2)cc1Nc1ccc2ncn(C)c(=O)c2c1  LOC_OS05G07850-cb002  thermal shift delta Tm            0.77
29  CN1CCN(Cc2ccc(NC(=O)Nc3ccc(Oc4ccnc(N)n4)cc3)cc2C(F)(F)F)CC1  LOC_OS05G07850-cb002  thermal shift delta Tm            11.9
30  COc1ccc(S(=O)(=O)N(CCO)c2ccccc2CN(C)C/C=C/c2ccc(Cl)cc2)cc1 [KN-93 Phosphate]  LOC_OS05G07850-cb002  thermal shift delta Tm            0.97
31  Nc1ccc(C(=O)Nc2cccc(-c3nc(N4CCOCC4)c4oc5ncccc5c4n3)c2)cn1  LOC_OS05G07850-cb002  thermal shift delta Tm            1.25
32  CN1CCC(CNc2ccc3ncc(-c4cccc(OC(F)(F)F)c4)n3n2)CC1 [SGI-1776 free base]  LOC_OS05G07850-cb002  thermal shift delta Tm              12
33  C[C@@H](NC(=O)c1ncnc(N)c1Cl)c1ncc(C(=O)Nc2cc(C(F)(F)F)c(Cl)cn2)s1  LOC_OS05G07850-cb002  thermal shift delta Tm            4.01
